Numbers sourced from patent US5461036A.

- Measurement protocol: in vivo
- Design: species or system nude mice (BALB/c nu/nu)
- Settings: mouse, in vivo; intravenous, continuous 5 days, nude mice; maximum dose at which no animal was dead within 2 weeks; read-out: Maximum tolerated dose
// values below are reported MTD at 336 h
Assay readout: MTD at 336 h

# Compound, Assay readout, Observed measurement
data = [
    ("CCCCCCCCCCCCC/C=C/C(=O)NCC(=O)N[C@@H]1[C@@H](O)[C@@H](O)[C@@H](Nc2ncnc3[nH]cnc23)O[C@H]1C(O)CO (stereo partly shown)", "MTD at 336 h", "0.6 mg/kg/day"),
    ("CCCC/C=C\\CCCCCCCC(=O)NCC(=O)N[C@@H]1[C@@H](O)[C@@H](O)[C@@H](Nc2ncnc3[nH]cnc23)O[C@H]1C(O)CO (stereo partly shown)", "MTD at 336 h", "6 mg/kg/day"),
    ("CCCCCCCCCCCCCC[C@@H](OC(C)=O)C(=O)NCC(=O)NC1C(O)C(O)C(Nc2ncnc3[nH]cnc23)OC1C(O)CO (stereo partly shown)", "MTD at 336 h", "1.5 mg/kg/day"),
    ("N#CCCCCCCCCCCCCCCCC(=O)NCC(=O)NC1C(O)C(O)C(Nc2ncnc3[nH]cnc23)OC1C(O)CO (stereo not shown)", "MTD at 336 h", "13.5 mg/kg/day"),
]

----------
// values below are reported TGIR (tumor growth inhibition rate, maximum)
- System: human colon cancer (COL-1)
- Assay type: in vivo, mouse
- Settings: COL-1 s.c. in nude mice, at MTD; TGIR=(1-Tx/Cx)×100; maximum during about 3 weeks
Assay readout: TGIR (tumor growth inhibition rate, maximum)

# Compound, Observed measurement
rows = [
    ("CCCCCCCCCCCCCCC(Cl)C(=O)NCC(=O)NC1C(O)C(O)C(Nc2ncnc3[nH]cnc23)OC1C(O)CO (stereo not shown)", 93),
    ("CCCCCCCCC/C=C/C=C/C(=O)NCC(=O)NC1C(O)C(O)C(Nc2ncnc3[nH]cnc23)OC1C(O)CO (stereo not shown)", 93),
    ("O=C(CCCCCCCCC#Cc1ccoc1)NCC(=O)NC1C(O)C(O)C(Nc2ncnc3[nH]cnc23)OC1C(O)CO (stereo not shown)", 97),
    ("O=C(CCCCCCCCCCCCCCF)NCC(=O)NC1C(O)C(O)C(Nc2ncnc3[nH]cnc23)OC1C(O)CO (stereo not shown)", 96),
    ("O=C(CCCCCCCCCCCOc1ccccc1)NCC(=O)NC1C(O)C(O)C(Nc2ncnc3[nH]cnc23)OC1C(O)CO (stereo not shown)", 88),
    ("CCCCCCCCC/C=C/C(=O)NCC(=O)N[C@@H]1[C@@H](O)[C@@H](O)[C@@H](Nc2ncnc3[nH]cnc23)O[C@H]1C(O)CO (stereo partly shown)", 86),
    ("CC(C)CCCCCCCCC(=O)NCC(=O)N[C@@H]1[C@@H](O)[C@@H](O)[C@@H](Nc2ncnc3[nH]cnc23)O[C@H]1C(O)CO (stereo partly shown)", 99),
]

----------
- System: human colon cancer (COL-1)
- Assay type: in vivo, mouse
- Settings: COL-1 s.c. in nude mice, at MTD; TGIR=(1-Tx/Cx)×100; maximum during about 3 weeks
// values below are reported TGIR (tumor growth inhibition rate, maximum)
Assay readout: TGIR (tumor growth inhibition rate, maximum)

# Compound, Observed measurement
rows = [
    ("CCCCS(=O)(=O)OCCCCCCCCCCCC(=O)NCC(=O)NC1C(O)C(O)C(Nc2ncnc3[nH]cnc23)OC1C(O)CO (stereo not shown) [SPK232]", 96),
    ("CCCCCCCCCCCCCCC(F)C(=O)NCC(=O)NC1C(O)C(O)C(Nc2ncnc3[nH]cnc23)OC1C(O)CO (stereo not shown) [SPK233]", 96),
    ("CCCCCCCCCCCCCC[C@@H](OC(C)=O)C(=O)NCC(=O)NC1C(O)C(O)C(Nc2ncnc3[nH]cnc23)OC1C(O)CO (stereo partly shown) [SPK198]", 82),
    ("O=C(CCCCCCCCCCCCCCCF)NCC(=O)NC1C(O)C(O)C(Nc2ncnc3[nH]cnc23)OC1C(O)CO (stereo not shown) [SPK157]", 98),
]
